# log10(IC50) per record follows
# test-system: hERG (Homo sapiens, UniProt Q12809)
# Construct: stably transfected with full length hERG cDNA
# Sequence (Q12809 whole entry): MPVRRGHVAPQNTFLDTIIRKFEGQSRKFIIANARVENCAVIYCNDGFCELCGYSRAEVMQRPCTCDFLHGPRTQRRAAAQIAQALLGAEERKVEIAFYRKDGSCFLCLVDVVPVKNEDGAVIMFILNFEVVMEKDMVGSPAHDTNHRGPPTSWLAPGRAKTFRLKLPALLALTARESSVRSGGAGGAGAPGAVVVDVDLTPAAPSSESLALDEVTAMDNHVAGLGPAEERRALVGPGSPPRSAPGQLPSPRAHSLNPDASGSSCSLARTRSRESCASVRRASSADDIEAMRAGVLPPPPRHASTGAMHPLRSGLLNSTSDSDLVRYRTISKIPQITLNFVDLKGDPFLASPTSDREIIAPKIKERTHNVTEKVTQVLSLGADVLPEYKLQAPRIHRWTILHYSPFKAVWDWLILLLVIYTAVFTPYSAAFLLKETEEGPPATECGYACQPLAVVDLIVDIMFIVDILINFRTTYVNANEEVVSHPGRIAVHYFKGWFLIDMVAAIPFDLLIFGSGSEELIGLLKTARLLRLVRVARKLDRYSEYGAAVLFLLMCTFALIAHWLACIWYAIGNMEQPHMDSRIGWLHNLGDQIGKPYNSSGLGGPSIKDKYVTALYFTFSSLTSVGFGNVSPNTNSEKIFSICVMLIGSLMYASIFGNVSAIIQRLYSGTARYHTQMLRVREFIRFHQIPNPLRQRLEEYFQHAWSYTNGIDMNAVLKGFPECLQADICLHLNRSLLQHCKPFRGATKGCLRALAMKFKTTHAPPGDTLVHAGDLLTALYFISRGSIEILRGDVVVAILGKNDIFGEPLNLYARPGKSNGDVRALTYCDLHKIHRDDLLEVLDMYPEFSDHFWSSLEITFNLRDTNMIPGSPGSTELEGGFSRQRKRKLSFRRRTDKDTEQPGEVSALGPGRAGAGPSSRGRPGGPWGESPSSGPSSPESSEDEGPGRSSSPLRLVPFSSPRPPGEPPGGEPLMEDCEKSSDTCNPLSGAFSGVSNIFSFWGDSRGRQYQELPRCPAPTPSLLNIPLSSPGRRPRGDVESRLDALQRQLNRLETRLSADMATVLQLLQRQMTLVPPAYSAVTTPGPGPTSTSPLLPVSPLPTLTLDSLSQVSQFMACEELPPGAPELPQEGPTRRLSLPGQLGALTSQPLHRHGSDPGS
# method-summary: hERG in-vitro assay, IonWorks Barracuda population patch clamp
# study-conditions: hERG/HEK293 cells; hERG current block, 5 minutes exposure
Recorded IC50 (log10, µM)

O=C(c1ccc(-c2ccc(C(F)(F)F)cc2)cc1)N1CCC(Nc2ncc[nH]2)CC1: 0.40
O=C(c1ccc(-c2ccc(C(F)F)cc2)cc1)N1CCC(Nc2ncc[nH]2)CC1: 0.72
O=C(c1ccc2c(c1)oc1ccccc12)N1CCC(c2ncc[nH]2)CC1: 0.30

For record O=C(c1ccc(-c2cccc3c2OCO3)cc1)N1CCC(c2ncc[nH]2)CC1 the listed log10(IC50) is 0.53

For record O=C(c1ccc(-c2c[nH]c3ccccc23)cc1)N1CCC(c2ncc[nH]2)CC1 the listed log10(IC50) is 1.39

For record O=C(c1ccc(-n2ccc3ccccc32)cc1)N1CCC(c2ncc[nH]2)CC1 the listed log10(IC50) is 0.53
